For each record, write down the corresponding melting point.

Value lookup for melting point; key = "Cc1c(C(=O)NCc2cccc(C(F)(F)F)c2)nc(-c2ccc(Cl)cc2Cl)n1-c1ccc(Cl)cc1"
138 to 140 °C

Value lookup for melting point; key = "Cc1c(C(=O)NN2CCCC2)nc(-c2ccc(Cl)cc2Cl)n1-c1ccc(Cl)cc1"
205 to 206 °C

Value lookup for melting point; key = "Cc1c(C(=O)NCCc2ccc(F)cc2)nc(-c2ccccc2Cl)n1-c1cccc(F)c1"
123.5 to 126 °C

Value lookup for melting point; key = "Cc1cccnc1-c1nc(C(=O)NN2CCCCC2)c(C)n1-c1ccc(Cl)cc1"
211 to 213 °C

Value lookup for melting point; key = "Cc1c(C(=O)NN2CCCCC2)nc(-c2ccc(Cl)cc2Cl)n1-c1ccc(Br)cc1"
> 204 °C

Value lookup for melting point; key = "Cc1c(C(=O)NN2CCCCC2)nc(-c2ccccc2Cl)n1-c1cccc(F)c1"
236 to 238 °C

Value lookup for melting point; key = "Cc1c(C(=O)NCc2ccc(F)cc2)nc(-c2ccc(Cl)cc2Cl)n1-c1ccc(Cl)cn1"
123 to 126 °C

Value lookup for melting point; key = "Cc1ccc(-c2nc(C(=O)NN3CCCCC3)c(C)n2-c2ccc(Cl)cc2)n1C"
208 to 210 °C

Value lookup for melting point; key = "O=C(NCC(F)(F)F)c1cn(-c2ccc(Cl)cc2)c(-c2ccc(Cl)cc2C(F)(F)F)n1"
149 °C

Value lookup for melting point; key = "CCc1c(C(=O)NN2CCCCC2)nc(-c2cc(Cl)ccc2Cl)n1-c1ccccc1"
207 to 208 °C

Value lookup for melting point; key = "COc1cc(Cl)ccc1-c1nc(C(=O)NN2CCCCC2)cn1-c1ccc(Cl)cc1"
220 °C

Value lookup for melting point; key = "Cc1c(C(=O)NC2CCCCCC2)nc(-c2ccc(Cl)cc2Cl)n1-c1ccc(Cl)cc1"
154 to 156 °C

Value lookup for melting point; key = "Cc1c(C(=O)NN2CCOCC2)nc(-c2ccc(Cl)cc2Cl)n1-c1ccc(Cl)cc1"
225 °C (dec.)

Value lookup for melting point; key = "Cc1c(C(=O)NCc2ccc(F)cc2)nc(-c2ccc(Cl)cc2Cl)n1-c1ccc(Cl)cc1"
165 to 166 °C

Value lookup for melting point; key = "CCCCCNC(=O)c1nc(-c2ccc(Cl)cc2OC)n(-c2ccc(Cl)cc2)c1C"
131 °C

Value lookup for melting point; key = "Cc1c(C(=O)N[C@H]2CC[C@H](O)CC2)nc(-c2ccc(Cl)cc2Cl)n1-c1ccc(Cl)cc1"
160 °C (dec.)

Value lookup for melting point; key = "O=C(NC1CCCCC1)c1cn(-c2cccnc2)c(-c2ccc(Cl)cc2Cl)n1"
195 °C
